Reference source: ChEMBL document CHEMBL1122779

# System: Rattus norvegicus
# ASSAY PROTOCOL: Percent change in average volume of pleural fluid at a dose of 4.0 mg/kg and 5-h response by Evans blue-carrageenan induced pleural effusion assay.
# Assay type: functional
So basically every entry gets a class from its Change, ranges being Low (below -30%), Medium (-30% to below -20%), High (-20% or more)

Reference set, count: 6
Nc1cccc(C(=O)c2ccccc2)c1CC(=O)[O-].[Na+]: High
Nc1c(CC(=O)[O-])cccc1C(=O)c1ccc(Cl)c(Cl)c1.[Na+]: High
COc1cc(CC(=O)[O-])c(N)c(C(=O)c2ccccc2)c1.[Na+]: High
Nc1c(CC(=O)[O-])cc(F)cc1C(=O)c1ccc(Cl)cc1Cl.[Na+]: Low
Cc1ccc(C(=O)c2cccc(CC(=O)[O-])c2N)cc1.[Na+]: High
Cc1ccccc1C(=O)c1cccc(CC(=O)[O-])c1N.[Na+]: High

Challenge: Place this molecule in its band: Nc1c(CC(=O)[O-])cc(Cl)cc1C(=O)c1ccc(O)cc1.[Na+]
Response given: High

Challenge: Looking at Nc1c(CC(=O)[O-])cc(F)cc1C(=O)c1ccccc1.[Na+] , which class would you pick?
Response given: High

Challenge: Input Nc1c(CC(=O)[O-])cc(F)cc1C(=O)c1ccc(Cl)cc1.[Na+] ; output its category
Response given: Low

Challenge: The entry to classify is Nc1c(CC(=O)[O-])cc(Br)cc1C(=O)c1ccc(Cl)cc1.[Na+] ; which class holds it?
Response given: Medium

---

Record form. Attribute: Intestinal toxicity. Fill in for each entry.
# System: Rattus norvegicus
# ASSAY PROTOCOL: Evaluated for chronic intestinal toxicity (multiple oral dose) in rats
# Assay type: organism-based
# MEASUREMENT SETUP: in vivo

Use the examples below as a reference point.
Nc1c(CC(=O)[O-])cccc1C(=O)c1ccc(Cl)cc1.[Na+]: 1.4
Nc1c(CC(=O)[O-])cccc1C(=O)c1ccccc1.[Na+] [AMFENAC SODIUM]: 0.4
Cc1cc(CC(=O)[O-])c(N)c(C(=O)c2ccc(Cl)cc2)c1.[Na+]: 0.4
Nc1c(CC(=O)[O-])cccc1C(=O)c1ccc(Cl)cc1Cl.[Na+]: 0.6
Nc1c(CC(=O)[O-])cc(Cl)cc1C(=O)c1ccc(I)cc1.[Na+]: 2.2

Record Intestinal toxicity per entry; entries follow.
1. Nc1c(CC(=O)[O-])cccc1C(=O)c1ccc(Br)cc1.Nc1c(CC(=O)[O-])cccc1C(=O)c1ccc(Br)cc1.O.O.O.[Na+].[Na+] [BROMFENAC SODIUM]
2. Nc1c(CC(=O)[O-])cc(Br)cc1C(=O)c1ccc(Br)cc1.[Na+]
3. Nc1c(CC(=O)[O-])cc(Cl)cc1C(=O)c1ccc(Br)cc1.[Na+]

Response given:
[1.8, 1, 2.9]

Challenge: Return reported Intestinal toxicity; argument: Cc1cc(CC(=O)[O-])c(N)c(C(=O)c2ccc(Br)cc2)c1.[Na+]
Response given: 1.1

---

# System: Rattus norvegicus
# ASSAY PROTOCOL: Evaluated for chronic intestinal toxicity (multiple oral dose) in rats
# Format: organism-based
# MEASUREMENT SETUP: in vivo
Assign Intestinal toxicity to each entry below.

Some solved cases for reference:
Cc1cc(CC(=O)O)n(C)c1C(=O)c1ccc(Cl)cc1 [ZOMEPIRAC]: 0.63
Nc1c(CC(=O)[O-])cccc1C(=O)c1ccc(Br)cc1Cl.[Na+]: 1.6

Challenge: Find Intestinal toxicity (Rattus norvegicus) for the entry Nc1c(CC(=O)[O-])cc(F)cc1C(=O)c1ccc(Cl)cc1.[Na+]
Response given: 0.5

---

# ASSAY PROTOCOL: Chronic therapeutic index as ratio of potency in adjuvant-induced arthritis assay to that of potency in intestinal toxicity assay
# MEASUREMENT SETUP: read-out: Chronic TI
READOUT TYPE: selectivity ratio
Answers are plain numbers.

Cc1cc(CC(=O)O)n(C)c1C(=O)c1ccc(Cl)cc1 [ZOMEPIRAC]: 1.1
Nc1c(CC(=O)[O-])cc(F)cc1C(=O)c1ccc(Br)cc1.[Na+]: 1.2
Nc1c(CC(=O)[O-])cccc1C(=O)c1ccc(Cl)cc1.[Na+]: 1.6
Nc1c(CC(=O)[O-])cc(Cl)cc1C(=O)c1ccc(Br)cc1.[Na+]: 1.6
Nc1c(CC(=O)[O-])cccc1C(=O)c1ccc(I)cc1.[Na+]: 2.5
Nc1c(CC(=O)[O-])cccc1C(=O)c1ccc(Br)cc1.Nc1c(CC(=O)[O-])cccc1C(=O)c1ccc(Br)cc1.O.O.O.[Na+].[Na+] [BROMFENAC SODIUM]: 3.2
Nc1c(CC(=O)[O-])cc(Cl)cc1C(=O)c1ccc(Cl)cc1.[Na+]: 1.4

API: the following record is the query input.
Challenge: # selectivity ratio lookup, item Nc1c(CC(=O)[O-])cc(Cl)cc1C(=O)c1ccc(I)cc1.[Na+]
Response given: 2.5

---

# System: Rattus norvegicus
# ASSAY PROTOCOL: Evaluated for chronic intestinal toxicity (multiple oral dose) in rats
# Assay type: organism-based
# MEASUREMENT SETUP: in vivo
READOUT TYPE: Intestinal toxicity
Answers are plain numbers.

Nc1c(CC(=O)[O-])cc(Cl)cc1C(=O)c1ccc(Br)cc1Cl.[Na+]: 3.3
Nc1c(CC(=O)[O-])cc(F)cc1C(=O)c1ccc(Br)cc1.[Na+]: 1.9
Nc1c(CC(=O)[O-])cccc1C(=O)c1ccc(I)cc1.[Na+]: 3.3

Could I get Intestinal toxicity for every one of these entries?
1. COc1ccc2c(c1)c(CC(=O)O)c(C)n2C(=O)c1ccc(Cl)cc1 [INDOMETHACIN]
2. Nc1c(CC(=O)[O-])cc(Cl)cc1C(=O)c1ccc(Cl)cc1.[Na+]

Response given:
1
1.2

---

# Test system: Mus musculus
# ASSAY PROTOCOL: Oral analgesic activity was determined in mice by the acetylcholine-induced abdominal constriction assay upon ip administration of acetylcholine bromide 20 min following oral administration
# Type: functional
# MEASUREMENT SETUP: Abdomen
READOUT TYPE: log10(ED50) (log10 of the value in mg/kg)
Use the decimal logarithm of ED50 (mg/kg).

Some solved cases for reference:
Cc1ccc(C(=O)c2cc(Cl)cc(CC(=O)[O-])c2N)cc1.[Na+]: -1.00
Nc1c(CC(=O)[O-])cc(Cl)cc1C(=O)c1ccc(Br)cc1.[Na+]: -1.30
Nc1c(CC(=O)[O-])cc(Cl)cc1C(=O)c1ccc(Br)cc1Cl.[Na+]: -0.18
Cc1cc(CC(=O)[O-])c(N)c(C(=O)c2ccc(Cl)cc2)c1.[Na+]: -0.11
COc1ccc2c(c1)c(CC(=O)O)c(C)n2C(=O)c1ccc(Cl)cc1: -0.66
Nc1c(CC(=O)[O-])cc(F)cc1C(=O)c1ccc(Cl)cc1Cl.[Na+]: -0.80
Nc1c(CC(=O)[O-])cccc1C(=O)c1ccccc1.[Na+] [AMFENAC SODIUM]: -0.96
Cc1cc(CC(=O)[O-])c(N)c(C(=O)c2ccc(Br)cc2)c1.[Na+]: -0.14
CSc1ccc(C(=O)c2cc(F)cc(CC(=O)[O-])c2N)cc1.[Na+]: -1.00
Nc1c(CC(=O)[O-])cc(F)cc1C(=O)c1ccc(F)cc1.[Na+]: -0.15

Need log10(ED50) for each of these molecules.
1. Nc1c(CC(=O)[O-])cccc1C(=O)c1ccc(Cl)cc1Cl.[Na+]
2. Cc1cc(CC(=O)O)n(C)c1C(=O)c1ccc(Cl)cc1 [ZOMEPIRAC]
3. Nc1c(CC(=O)[O-])cccc1C(=O)c1ccc(Br)cc1Cl.[Na+]
4. Nc1c(CC(=O)[O-])cccc1C(=O)c1ccc(Cl)cc1.[Na+]
5. Nc1c(CC(=O)[O-])cccc1C(=O)c1ccc(Br)cc1.Nc1c(CC(=O)[O-])cccc1C(=O)c1ccc(Br)cc1.O.O.O.[Na+].[Na+] [BROMFENAC SODIUM]
6. Nc1c(CC(=O)[O-])cc(F)cc1C(=O)c1ccc(Cl)cc1.[Na+]
7. Nc1c(CC(=O)[O-])cc(Cl)cc1C(=O)c1ccc(I)cc1.[Na+]

Response given:
1: -0.68; 2: -0.68; 3: -0.92; 4: -1.00; 5: -1.15; 6: -0.55; 7: -0.62

Hello, I would appreciate it if you could give log10(ED50) for each entry below.
1. Nc1c(CC(=O)[O-])cccc1C(=O)c1ccc(I)cc1.[Na+]
2. Nc1c(CC(=O)[O-])cc(F)cc1C(=O)c1ccc(Br)cc1.[Na+]
3. CSc1ccc(C(=O)c2cc(Cl)cc(CC(=O)[O-])c2N)cc1.[Na+]
4. Nc1c(CC(=O)[O-])cc(Cl)cc1C(=O)c1ccc(Cl)cc1.[Na+]

Response given:
-0.89
-0.74
-1.00
-0.64
